# Test system: Staphylococcus aureus
# Assay Notes: Minimum inhibitory concentration against Staphylococcus aureus 887
# Assay type: functional
Observable: MIC

Specify MIC for `COC(=O)[C@@H]1CSCc2c(O)cc(O)c(C)c2C(=O)OC[C@H](N)C(=O)N1` and stop.
> 64 µg/mL

For the molecule `C=CCNC(=O)[C@@H]1CSCc2c(O)cc(OC)c(C)c2C(=O)OC[C@H](NC(=O)OC(C)(C)C)C(=O)N1` , give its measured MIC value.
16 µg/mL

Determine its reported MIC: `COc1cc(O)c2c(c1C)C(=O)OC[C@H](NC(=O)OC(C)(C)C)C(=O)N[C@H](C(N)=O)CSC2`
> 64 µg/mL

Dear colleague, please send me the reported MIC for COC(=O)[C@@H]1CSCc2c(O)cc(OC)c(C)c2C(=O)OCC(NC(=O)OC(C)(C)C)C(=O)N1 (stereo partly drawn) when you can.
64 µg/mL

In one line, give reported MIC of the entry COC(=O)[C@@H]1CSCc2c(O)cc(O)c(C)c2C(=O)OCC(NC(=O)OC(C)(C)C)C(=O)N1 (stereo partly drawn) .
> 64 µg/mL

Return MIC (reported value) for this molecule: `COC(=O)[C@@H]1CSCc2c(O)cc(OC)c(C)c2C(=O)OC[C@H](C)C(=O)N1`
16 µg/mL

State, in one line, measured MIC of `COC(=O)[C@@H]1CSCc2c(O)cc(OC)c(C)c2C(=O)OC[C@@H](C)C(=O)N1`
> 64 µg/mL

Answer with reported MIC of COC(=O)[C@@H]1CSCc2c(O)cc(O)c(C)c2C(=O)OCC(NC(=O)[C@@H]2C(O)CCN2C(=O)OC(C)(C)C)C(=O)N1 (stereo partly drawn)
> 64 µg/mL
